Field: growth. Provide a value for each of the compounds that follow.
# Test system: SR leukemia
# PROTOCOL_SUMMARY: NCI-60 one-dose screen, 48 h (100 = growth as untreated, 0 = no growth, -100 = all killed)
# CONDITION_PARAMETERS: 10 µM unless noted
# Protocol: Growth inhibition of the SR human tumor cell line is measured as a screen for anti-cancer activity. Cells are grown in 96 well plates and exposed to the test compound for 48 hours. Compounds are tested at a single concentration, which is 10^-5 M for most compounds. The reported endpoint is percent growth (GI% or GIPRCNT), where numbers from 0 - 100% represent growth inhibition, and numbers from -100% - 0 represent cell death. For example, a value of 40 represents 60% growth inhibition. […]
The panel holds about 83,000 compounds, 20% with a hit somewhere; the sample as a whole holds those more often.
Record the value in %, omitting the unit from your answer.

query: Answer with the recorded growth of `COCCNC1=C(Cl)C(=O)c2ccccc2C1=O` only.
result: 105

query: Answer with the recorded growth of `N=c1ccc2nc3c(cc(N)c4ccccc43)oc-2c1` only.
result: -41

query: Answer with the recorded growth of `C[N+](C)(CCCCCC[N+](C)(C)C1c2ccccc2-c2ccccc21)C1c2ccccc2-c2ccccc21` only.
result: 98.3

query: Answer with the recorded growth of `NNC(=O)c1nc2ccccc2[nH]1` only.
result: 96.4

query: Answer with the recorded growth of Cc1ccc(-c2nc3ccc(Cl)cc3c(=O)n2N2C(=O)CSC2c2ccccc2Cl)cc1 (stereo unspecified) only.
result: 80.8

query: Answer with the recorded growth of `CN(C)c1ccc(N)c2ccccc12` only.
result: 55

###

# System: SK-MEL-2 melanoma
# PROTOCOL_SUMMARY: NCI-60 one-dose screen, 48 h
# CONDITION_PARAMETERS: 10 µM unless noted
The panel holds about 83,000 compounds, 20% with a hit somewhere; the sample as a whole holds those more often. The source made the active and inactive calls. Rule for the calls: active = growth percent below 10; inactive = the rest.
Pick from yes = active, no = inactive when you respond.

query: Called result for `Cn1cc(-c2nc(-c3c[nH]c4ncccc34)cs2)c2ccccc21`
result: no

query: Called result for `Cc1nc([P+](c2ccccc2)(c2ccccc2)c2ccccc2)c(Sc2sc(-c3ccccc3)nc2[P+](c2ccccc2)(c2ccccc2)c2ccccc2)o1`
result: yes

query: Called result for `CC(=O)c1c(C)[nH]c(-c2nc3ccc(N4CCN(C)CC4)cc3[nH]2)c1-c1ccc2c(c1)OCCO2`
result: no

query: Called result for CCCC1CCCCN1C(=O)OCC(C)C (stereo unspecified)
result: no

query: Called result for `COc1ccccc1-n1cnc(N)c1C(=O)c1cc(OC)c(OC)c(OC)c1`
result: no

query: Called result for `O=C1c2cccc3cccc(c23)C(=O)N1CC#Cc1ccc2c3c(cccc13)C(=O)N(CCN1CCNCC1)C2=O`
result: no

query: Called result for `COc1ccc(NC(=O)c2ccoc2COc2ccccc2)cc1`
result: no

query: Called result for `COc1cc(/C=C/c2cc(/C=C/c3ccc(O)c(OC)c3)n(-c3ccccc3)c(=O)n2)ccc1O`
result: no

query: Called result for `Oc1ccccc1/C=N\NC(=S)Nc1ccc(F)cc1`
result: no

query: Called result for `COC(=O)[C@]12CC[C@@H](C(=O)/C=C/c3cccnc3)[C@@H]1[C@H]1CC[C@@H]3[C@@]4(C)C/C(=C/c5cccnc5)C(=O)C(C)(C)[C@@H]4CC[C@@]3(C)[C@]1(C)CC2`
result: yes

query: Called result for `Cn1c2c(Cl)c(Cl)ccc2c2c(C#N)c[nH]c(=O)c21`
result: no

query: Called result for `Cc1cc2nc3c4cc(O)ccc4n(CCN(C)C)c3nc2cc1C`
result: yes

query: Called result for `N=C(N)N=Nc1ccc(O)cc1`
result: no

query: Called result for `Cc1nn(-c2ccc(Cl)cc2)c(=O)n1CCn1cnc2ccccc21`
result: no

query: Called result for `CCCCC[C@H]1CC=C2C(=O)C(Cl)=C[C@@H]2CC=CCCCC(=O)O[C@@H](CCCCC)CC=C2C(=O)C(Cl)=C[C@@H]2CC=CCCCC(=O)O[C@@H](CCCCC)CC=C2C(=O)C(Cl)=C[C@@H]2CC=CCCCC(=O)O1`
result: no

query: Called result for `C[N+](C)(CCCCCC[N+](C)(C)C1c2ccccc2-c2ccccc21)C1c2ccccc2-c2ccccc21`
result: no
